- System: Staphylococcus aureus
- test_method_notes: In vitro antibacterial activity of the peptide was tested against Staphylococcus aureus
- Format: functional
Where a SMILES comes first, the peptide text is derived from it. [ ]: non-standard residue; d: D form. Ac6c = NC1(C(=O)O)CCCCC1; Api = NC1(C(=O)O)CCNCC1; Aib = CC(C)(N)C(=O)O
Cut-off 10 µM on MIC: below means yes (1), at or above means no (0).

Worked cases, answers included:
[
  {
    "molecule": "NCCCC[C@H](NC(=O)[C@H](CCCCN)NC(=O)C1(NC(=O)C2(NC(=O)[C@H](CCCCN)NC(=O)C3(NC(=O)C4(NC(=O)[C@H](CCCCN)NC(=O)[C@@H](N)CCCCN)CCCCC4)CCCCC3)CCCCC2)CCCCC1)C(=O)NC1(C(=O)NC2(C(N)=O)CCCCC2)CCCCC1 (H-KK[Ac6c][Ac6c]K[Ac6c][Ac6c]KK[Ac6c][Ac6c]-NH2)",
    "assay_system": "Staphylococcus aureus",
    "class_name": "yes (1)"
  },
  {
    "molecule": "CC(C)(N)C(=O)NC(C)(C)C(=O)NC1(C(=O)N[C@@H](CCCCN)C(=O)NC(C)(C)C(=O)NC(C)(C)C(=O)NC2(C(=O)N[C@@H](CCCCN)C(=O)NC(C)(C)C(=O)NC(C)(C)C(N)=O)CCNCC2)CCNCC1 (H-[Aib][Aib][Api]K[Aib][Aib][Api]K[Aib][Aib]-NH2)",
    "assay_system": "Staphylococcus aureus",
    "class_name": "no (0)"
  },
  {
    "molecule": "CC(C)(NC(=O)C(C)(C)NC(=O)[C@H](CCCCN)NC(=O)[C@H](CCCCN)NC(=O)C(C)(C)NC(=O)C(C)(C)NC(=O)[C@H](CCCCN)NC(=O)C(C)(C)NC(=O)C(C)(C)NC(=O)[C@H](CCCCN)NC(=O)[C@@H](N)CCCCN)C(N)=O (H-KK[Aib][Aib]K[Aib][Aib]KK[Aib][Aib]-NH2)",
    "assay_system": "Staphylococcus aureus",
    "class_name": "no (0)"
  },
  {
    "molecule": "CC(C)(NC(=O)C(C)(C)NC(=O)[C@H](CCCCN)NC(=O)[C@H](CCCCN)NC(=O)C(C)(C)NC(=O)C(C)(C)NC(=O)[C@H](CCCCN)NC(=O)C(C)(C)NC(=O)C(C)(C)NC(=O)[C@H](CCCCN)NC(=O)[C@H](CCCCN)NC(=O)C(C)(C)NC(=O)C(C)(C)NC(=O)[C@@H](N)CCCCN)C(N)=O (H-K[Aib][Aib]KK[Aib][Aib]K[Aib][Aib]KK[Aib][Aib]-NH2)",
    "assay_system": "Staphylococcus aureus",
    "class_name": "no (0)"
  }
]

stdin: Identify whether the molecule NCCCC[C@H](NC(=O)[C@H](CCCCN)NC(=O)C1(NC(=O)C2(NC(=O)[C@H](CCCCN)NC(=O)C3(NC(=O)C4(NC(=O)[C@H](CCCCN)NC(=O)[C@H](CCCCN)NC(=O)C5(NC(=O)C6(NC(=O)[C@@H](N)CCCCN)CCCCC6)CCCCC5)CCCCC4)CCCCC3)CCCCC2)CCCCC1)C(=O)NC1(C(N)=O)CCCCC1 (H-K[Ac6c][Ac6c]KK[Ac6c][Ac6c]K[Ac6c][Ac6c]KK[Ac6c]-NH2) records MIC below 10 µM.
stdout: yes (1)

stdin: # check: MIC < 10 µM for NCCCC[C@H](NC(=O)[C@H](CCCCN)NC(=O)C1(NC(=O)C2(NC(=O)[C@H](CCCCN)NC(=O)C3(NC(=O)C4(NC(=O)[C@H](CCCCN)NC(=O)[C@@H](N)CCCCN)CCCCC4)CCCCC3)CCCCC2)CCCCC1)C(=O)NC1(C(N)=O)CCCCC1 (H-KK[Ac6c][Ac6c]K[Ac6c][Ac6c]KK[Ac6c]-NH2)
stdout: yes (1)

stdin: MIC strictly < 10 µM for this molecule? CC(=O)N[C@@H](CCCCN)C(=O)N[C@@H](CCCCN)C(=O)NC(C)(C)C(=O)NC(C)(C)C(=O)N[C@@H](CCCCN)C(=O)NC(C)(C)C(=O)NC(C)(C)C(=O)N[C@@H](CCCCN)C(=O)N[C@@H](CCCCN)C(=O)NC(C)(C)C(=O)NC(C)(C)C(N)=O (Ac-KK[Aib][Aib]K[Aib][Aib]KK[Aib][Aib]-NH2)
stdout: no (0)
